These data points were gathered from ChEMBL document CHEMBL1138863.

tested on: Human alphaherpesvirus 1; experiment: Antiviral activity against HSV1 KOS in HEL cells; type: functional, organism-based; settings: Human alphaherpesvirus 1, KOS
experimental-readout: pEC50
Conceptually, pEC50 converts a concentration in mol/L into minus its log10.

Use the examples below as a reference point.
* Nc1nc2c(ncn2COCCO)c(=O)[nH]1 | 4.92
* Nc1ncnc2c1ncn2CCOC[PH](=O)O | 3.92
* BP(=O)(O)CO[C@H](C)Cn1cnc2c(N)ncnc21 | 3.92

Item O=c1[nH]c(=O)n([C@H]2C[C@H](O)[C@@H](CO)O2)cc1/C=C/Br has what recorded pEC50?
3.52

// query: Nc1nc2c(ncn2COC(CO)CO)c(=O)[nH]1
6.32
